Tested on: RAW-Dual (murine macrophage reporter line)
testMethodNotes: NF-kB reporter (SEAP) activity fold change vs agonist alone; higher = enhanced NF-kB activity
conditionParameters: modulator concentration 10 µM; agonist: LPS 0.1 ug/mL
# binarize NF-kB reporter: threshold 1 inclusive, high side 1 (yes), low side 0 (no)

See these solved cases before continuing.
{"molecule": "CCCCOc1ccc(S(=O)(=O)NCCCn2ccnc2)cc1", "classification": "1 (yes)"}
{"molecule": "Cc1ccc(S(=O)(=O)CCSc2cccc(C(=O)Nc3ccccc3)c2)cc1", "classification": "1 (yes)"}
{"molecule": "O=C(CSC1CC(=O)N(c2ccc(C(=O)O)cc2)C1=O)Nc1ccc(F)cc1 (centres undefined)", "classification": "0 (no)"}
{"molecule": "Cc1cc2c(C)cc[n+](CCCS(=O)(=O)[O-])c2cc1C", "classification": "1 (yes)"}
{"molecule": "Clc1ccc2nsnc2c1NC1=NCCN1 [Prestw-1182]", "classification": "1 (yes)"}

Consider the additional molecule presented here.
-- ask // inclusive: NF-kB reporter at least 1? input: CCN(CC)C(=S)SSC(=S)N(CC)CC
-- reply 0 (no)

----------
Test system: RAW-Dual (murine macrophage reporter line)
testMethodNotes: IRF reporter (Lucia luciferase) activity fold change vs agonist alone; higher = enhanced IRF activity
conditionParameters: modulator concentration 10 µM; agonist: LPS 0.1 ug/mL
# binarize IRF reporter: threshold 1 inclusive, high side met, low side not met

See these solved cases before continuing.
{"compound": "COc1cccc(N2C(=O)CN(Cc3ccccc3)C3CS(=O)(=O)CC32)c1 (centres undefined)", "classification": "not met"}
{"compound": "O=C1c2ccccc2C(=O)C1c1ccccc1", "classification": "met"}

Consider the additional compound presented here.
-- ask // inclusive: IRF reporter at least 1? input: Cl.O=C(O)/C=C/c1ccc(Cn2ccnc2)cc1
-- reply met

----------
Tested on: RAW-Dual (murine macrophage reporter line)
testMethodNotes: IRF reporter (Lucia luciferase) activity fold change vs agonist alone; higher = enhanced IRF activity
conditionParameters: modulator concentration 10 µM; agonist: LPS 0.1 ug/mL
quantityName: IRF reporter
// no unit, no text: just the number

Take a look at these entries with their results.
{"compound": "Cc1ccc(NC(=O)CSc2nc3ccccc3[nH]2)cc1.Cl", "quantityName": "IRF reporter", "endpointResult": 1.19}
{"compound": "Br.O=S(=O)(c1ccc(-c2csc(Nc3ccc(Br)cc3)n2)cc1)N1CCCC1", "quantityName": "IRF reporter", "endpointResult": 1.37}
{"compound": "O=S(=O)(NCc1ccccn1)c1cccc(Cl)c1", "quantityName": "IRF reporter", "endpointResult": 1.32}

Proceed to the following item.
Briefly, IRF reporter measured for Cn1nc(CNC(=O)c2cccc3ccccc23)cc1C1CC1 : 1.06

----------
Form field: NF-kB reporter (one value per entry).
Test system: RAW-Dual (murine macrophage reporter line)
testMethodNotes: NF-kB reporter (SEAP) activity fold change vs agonist alone; higher = enhanced NF-kB activity
conditionParameters: modulator concentration 10 µM; agonist: MPLA […]
// no unit, no text: just the number

Take a look at these entries with their results.
{"compound": "CCN(CC)CCNC(=O)c1cc(S(C)(=O)=O)ccc1OC.Cl", "endpointResult": 0.975}
{"compound": "CC1COc2c(N3CCN(C)CC3)c(F)cc3c(=O)c(C(=O)O)cn1c23 (stereo unspecified) [Prestw-237]", "endpointResult": 1.12}
{"compound": "COc1cc(C=NNC(=O)c2ccc(OC)c(OC)c2)ccc1O", "endpointResult": 0.831}
{"compound": "Fc1ccc2ccccc2c1", "endpointResult": 1.01}
{"compound": "CCC(=O)Nc1ccc(NC(=O)c2ccco2)c(OC)c1", "endpointResult": 1.08}

Entry CC1(C)OC(=O)NC1=O [Prestw-829] ; assay system RAW-Dual (murine macrophage reporter line); NF-kB reporter recorded at 0.958

Entry COc1ccc(C(C)NC(=O)CCc2nnc3ccc(-c4ccc(C)c(C)c4)nn23)cc1OC (stereo unspecified) ; assay system RAW-Dual (murine macrophage reporter line); NF-kB reporter recorded at 1.4

Entry CO[C@@]1(NC(=O)CSCC#N)C(=O)N2C(C(=O)[O-])=C(CSc3nnnn3C)CS[C@@H]21 [Prestw-700] ; assay system RAW-Dual (murine macrophage reporter line); NF-kB reporter recorded at 0.927

Entry Oc1ccc(C=Cc2cc(O)cc(O)c2)cc1 ; assay system RAW-Dual (murine macrophage reporter line); NF-kB reporter recorded at 1.23

Entry CCOc1ccc(-c2nc3c(c(C)nn3-c3ccccc3)c3cc(OC)c(OC)cc23)cc1 ; assay system RAW-Dual (murine macrophage reporter line); NF-kB reporter recorded at 1.05

Entry COc1ccc(C2N3CC4(C)CN2CC(C)(C3)C4=O)cc1 (stereo unspecified) ; assay system RAW-Dual (murine macrophage reporter line); NF-kB reporter recorded at 0.947

----------
Test system: RAW-Dual (murine macrophage reporter line)
testMethodNotes: NF-kB reporter (SEAP) activity fold change vs agonist alone; higher = enhanced NF-kB activity
conditionParameters: modulator concentration 10 µM; agonist: LPS 0.1 ug/mL
quantityName: NF-kB reporter
// no unit, no text: just the number

Take a look at these entries with their results.
{"molecule": "Cc1nnc(NN=Cc2ccc(Cl)c([N+](=O)[O-])c2)[nH]c1=O", "quantityName": "NF-kB reporter", "endpointResult": 1.02}
{"molecule": "CCOC(=O)C(CCc1ccccc1)NC(C)C(=O)N1C(C(=O)O)CC2CCCC21 (configuration not stated)", "quantityName": "NF-kB reporter", "endpointResult": 0.998}
{"molecule": "NC(Cc1cc(I)c(Oc2cc(I)c(O)c(I)c2)c(I)c1)C(=O)O (configuration not stated)", "quantityName": "NF-kB reporter", "endpointResult": 0.984}
{"molecule": "CCN(CC)c1nc(-c2ccccc2Cl)c2cc(Br)ccc2n1", "quantityName": "NF-kB reporter", "endpointResult": 0.975}
{"molecule": "COc1ccc(OC)c(C2CC(c3ccc(Cl)cc3)=NN2S(C)(=O)=O)c1 (configuration not stated)", "quantityName": "NF-kB reporter", "endpointResult": 0.897}

Briefly, NF-kB reporter measured for CCOC(=O)C(CC)Oc1ccc2c(C)c(CC)c(=O)oc2c1 (configuration not stated) : 0.875

Briefly, NF-kB reporter measured for COC(=O)c1cc(NC(=O)C2CCCC2)cc(C(=O)OC)c1 : 1

Briefly, NF-kB reporter measured for O=C(COc1ccc2ccccc2c1)NCC#CCN1CCCCC1 : 0.981

Briefly, NF-kB reporter measured for O=C(NCC1CCCN1c1nccs1)C1CC1 (configuration not stated) : 1.02

Briefly, NF-kB reporter measured for O=C1OCCN1C1CCN(C(=O)C2(c3ccc(F)cc3)CC2)C1 (configuration not stated) : 0.907

Briefly, NF-kB reporter measured for COc1ccccc1-c1cc(-c2ccccc2)nc(SCC(N)=O)c1C#N : 0.918

Briefly, NF-kB reporter measured for Cc1ccc(C(=O)NC2CCN(c3ccc4nncn4n3)C2)c(C)c1 (configuration not stated) : 1.02

----------
Tested on: RAW-Dual (murine macrophage reporter line)
testMethodNotes: NF-kB reporter (SEAP) activity fold change vs agonist alone; higher = enhanced NF-kB activity
conditionParameters: modulator concentration 10 µM; agonist: MPLA […]
quantityName: NF-kB reporter
// no unit, no text: just the number

Take a look at these entries with their results.
{"smilesString": "Cc1ccc2[nH]c(=O)c(-c3cc(-c4ccccc4)c4ccccc4n3)c(-c3ccccc3)c2c1", "NF-kB reporter": 0.816}
{"smilesString": "O=S(=O)(NCCOCc1ccccc1)c1ccccc1", "NF-kB reporter": 1.04}

Proceed to the following item.
Briefly, NF-kB reporter measured for Cc1cc(OC2CN(C(=O)CSCc3ccccc3)C2)cc(=O)n1C1CC1 : 0.994

----------
Form field: NF-kB reporter (one value per entry).
System: RAW-Dual (murine macrophage reporter line)
testMethodNotes: NF-kB reporter (SEAP) activity fold change vs agonist alone; higher = enhanced NF-kB activity
conditionParameters: modulator concentration 10 µM; agonist: MPLA […]

{"compound": "Cc1cc2c(cc1S(N)(=O)=O)S(=O)(=O)CCC2", "NF-kB reporter": 0.997}
{"compound": "CCCCCCOc1ccc(OC(=O)c2ccc(OC)cc2)cc1", "NF-kB reporter": 0.913}
{"compound": "COc1cccc2c1C(=O)c1c(O)c3c(c(O)c1C2=O)C[C@@](O)(C(=O)CO)C[C@@H]3O[C@H]1C[C@H](N)[C@@H](O)[C@H](C)O1.Cl", "NF-kB reporter": 0.0992}
{"compound": "CC(C)Sc1ccc(CC(=O)N2CCC(S(C)(=O)=O)C2)cc1 (configuration not stated)", "NF-kB reporter": 0.973}
{"compound": "NC(=NOC(=O)C(c1ccccc1)C1CCCC1)c1ccccn1 (configuration not stated)", "NF-kB reporter": 1.06}

Briefly, NF-kB reporter measured for COC1CCN(C2CN(C(=O)CCn3cnc4ccccc4c3=O)C2)CC1 : 0.882

Briefly, NF-kB reporter measured for Cc1ccc(-c2cc(-c3ccccc3)nc(NN=Cc3ccc(O)cc3)n2)cc1 : 1.7

Briefly, NF-kB reporter measured for CC1CN(Cc2ccccn2)CCC1=O (configuration not stated) : 1.03

Briefly, NF-kB reporter measured for Cc1ccc(OCC(O)CN2CCCCC2)c(C)c1.Cl (configuration not stated) : 1.01

Briefly, NF-kB reporter measured for CC1Cc2ccccc2N1C(=O)C1CCCN1S(=O)(=O)c1ccc(Cl)cc1 (configuration not stated) : 1.27

Briefly, NF-kB reporter measured for Cc1ccc(-c2ccc3nnc(CCC(=O)NCc4ccc(C(F)(F)F)cc4)n3n2)cc1C : 1.04

Briefly, NF-kB reporter measured for Cc1cc(OC2CCN(S(=O)(=O)CCc3ccccc3)C2)cc(=O)n1C (configuration not stated) : 1.15

Briefly, NF-kB reporter measured for Ic1cccc(Cn2nnc(-c3ccccc3)n2)c1 : 1.38

Briefly, NF-kB reporter measured for O=C(CCCc1ccccc1)NCC1(O)CCCC1 : 0.867

Briefly, NF-kB reporter measured for CN1CCN(CCCN2c3ccccc3Sc3ccc(Cl)cc32)CC1.O=C(O)/C=C\C(=O)O.O=C(O)/C=C\C(=O)O : 2.15
